Compiled literature IC50, tested on Tyrosine-protein phosphatase non-receptor type 1 (Homo sapiens, UniProt P18031).

compound	IC50
O=C1CN(c2c(O)ccc(-c3cn(CC(F)F)nc3F)c2F)S(=O)(=O)N1	≤ 1 µM
O=C(NCCn1cccn1)c1ccc2sc(C(F)(F)P(=O)(O)O)c(Br)c2c1	1.41 µM
O=C1CN(c2c(O)ccc(-c3cc(C(F)(F)F)n[nH]3)c2F)S(=O)(=O)N1	≤ 1 µM
O=C1CN(c2c(O)cc3ccc(OCCc4ccc(F)cc4)nc3c2F)S(=O)(=O)N1	≤ 1 µM
O=C1CN(c2c(O)ccc(-c3cnn(C4CCCOCC4)c3)c2F)S(=O)(=O)N1 (centres unmarked)	≤ 1 µM
O=C(Nc1cccc(OC(F)(F)F)c1)c1ccc2sc(C(F)(F)P(=O)(O)O)c(Br)c2c1	1.33 µM
O=C1CN(c2c(O)ccc(-c3cn(-c4ccc(C(F)(F)F)cc4)cn3)c2F)S(=O)(=O)N1	≤ 1 µM
CNc1nc(N)nc2nc(-c3ccccc3C(F)(F)F)c(C(=O)O)cc12	0.25 µM
